- targetSystem: Voltage-gated inwardly rectifying potassium channel KCNH2 (Homo sapiens)
- Sequence (Q12809 whole entry): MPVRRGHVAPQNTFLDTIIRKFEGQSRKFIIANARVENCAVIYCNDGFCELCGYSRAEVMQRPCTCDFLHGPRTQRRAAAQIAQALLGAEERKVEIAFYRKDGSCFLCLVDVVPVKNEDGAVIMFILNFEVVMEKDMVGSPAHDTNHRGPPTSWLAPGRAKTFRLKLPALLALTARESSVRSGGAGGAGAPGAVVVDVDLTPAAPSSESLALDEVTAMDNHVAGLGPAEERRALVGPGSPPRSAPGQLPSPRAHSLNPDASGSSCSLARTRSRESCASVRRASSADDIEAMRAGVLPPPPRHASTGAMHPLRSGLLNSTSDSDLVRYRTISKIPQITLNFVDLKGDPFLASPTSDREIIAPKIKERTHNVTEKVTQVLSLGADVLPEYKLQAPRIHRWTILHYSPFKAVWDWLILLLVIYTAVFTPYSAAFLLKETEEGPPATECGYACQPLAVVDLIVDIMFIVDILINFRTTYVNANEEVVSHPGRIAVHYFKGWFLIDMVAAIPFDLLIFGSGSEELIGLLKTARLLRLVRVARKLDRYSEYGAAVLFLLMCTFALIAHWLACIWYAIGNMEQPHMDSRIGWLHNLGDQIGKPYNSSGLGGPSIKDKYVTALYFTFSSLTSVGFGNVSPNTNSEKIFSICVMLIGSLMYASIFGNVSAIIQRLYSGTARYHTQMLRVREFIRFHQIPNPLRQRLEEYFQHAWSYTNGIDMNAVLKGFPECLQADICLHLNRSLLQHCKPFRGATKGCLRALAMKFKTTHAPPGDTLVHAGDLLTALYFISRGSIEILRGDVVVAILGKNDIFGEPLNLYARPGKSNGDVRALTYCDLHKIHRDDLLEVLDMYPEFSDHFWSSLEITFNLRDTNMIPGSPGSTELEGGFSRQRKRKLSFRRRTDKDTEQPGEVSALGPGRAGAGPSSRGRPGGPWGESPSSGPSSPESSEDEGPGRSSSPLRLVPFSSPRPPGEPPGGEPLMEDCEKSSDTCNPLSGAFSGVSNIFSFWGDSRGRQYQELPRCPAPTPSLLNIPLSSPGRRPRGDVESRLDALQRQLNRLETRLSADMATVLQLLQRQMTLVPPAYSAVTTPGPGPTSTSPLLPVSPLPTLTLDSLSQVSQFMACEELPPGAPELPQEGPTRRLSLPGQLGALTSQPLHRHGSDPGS
- assayProtocol: Inhibition of human ERG by patch clamp assay
readoutKind: IC50 (µM)
The reply should contain only the number, in µM.

# IC50 of "Cc1nc2c(=O)n(C3CC3)c3c(Cl)c(N4CC[C@@H]([C@H](C)N)C4)c(F)cc3c2o1" = 28.7

###

- targetSystem: Voltage-dependent L-type calcium channel subunit alpha-1C (Homo sapiens, UniProt Q13936)
- assayProtocol: Inhibition of Cav1.2 (unknown origin) by patch clamp assay
readoutKind: IC50 (µM)
The reply should contain only the number, in µM.

# IC50 of "Cc1nc2c(=O)n(C3CC3)c3c(Cl)c(N4CC[C@@H]([C@H](C)N)C4)c(F)cc3c2o1" = 93.6

###

- targetSystem: DNA gyrase (Staphylococcus aureus, UniProt P0A0K8+P20831)
- assayProtocol: Inhibition of Staphylococcus aureus DNA gyrase using relaxed pBR322 as substrate incubated for 30 mins by ethidium bromide staining based gel electrophoresis analysis
readoutKind: pIC50
pIC50 is defined as minus the log10 of a concentration measured in mol/L.

# pIC50 of "Cc1nc2c(=O)n(C3CC3)c3c(Cl)c(N4CC[C@@H]([C@H](C)N)C4)c(F)cc3c2o1" = 5.74

###

- targetSystem: Cytochrome P450 2D6 (Homo sapiens, UniProt P10635)
- Sequence (P10635 whole entry): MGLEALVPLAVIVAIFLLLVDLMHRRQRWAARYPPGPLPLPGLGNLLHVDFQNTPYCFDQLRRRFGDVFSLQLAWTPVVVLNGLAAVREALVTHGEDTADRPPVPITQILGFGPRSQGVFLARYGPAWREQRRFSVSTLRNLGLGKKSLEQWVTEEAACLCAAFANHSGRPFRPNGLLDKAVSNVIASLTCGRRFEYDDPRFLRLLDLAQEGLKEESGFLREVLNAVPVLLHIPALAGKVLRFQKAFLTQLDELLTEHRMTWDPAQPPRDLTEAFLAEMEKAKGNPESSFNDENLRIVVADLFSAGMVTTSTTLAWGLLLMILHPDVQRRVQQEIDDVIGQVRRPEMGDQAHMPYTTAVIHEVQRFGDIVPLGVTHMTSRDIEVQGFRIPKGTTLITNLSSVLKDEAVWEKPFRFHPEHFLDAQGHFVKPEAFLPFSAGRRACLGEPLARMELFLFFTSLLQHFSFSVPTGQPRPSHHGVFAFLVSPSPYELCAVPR
readoutKind: pIC50
pIC50 is defined as minus the log10 of a concentration measured in mol/L.

The molecule "Cc1nc2c(=O)n(C3CC3)c3c(Cl)c(N4CC[C@@H]([C@H](C)N)C4)c(F)cc3c2o1" , tested on Cytochrome P450 2D6 (Homo sapiens, UniProt P10635), showed pIC50 of 4.52

###

- Tested on: Staphylococcus aureus
- assayProtocol: Antibacterial activity against wild type methicillin-sensitive Staphylococcus aureus ATCC 29213 assessed as reduction in bacterial growth by CLSI based broth microdilution method
- Type: functional
Kindly state MIC for each of the entries shown.
The reply should contain only the number, in µg/mL.

The compound Cc1nc2c(=O)n(C3CC3)c3cc(N4CC5CNCC5C4)c(F)cc3c2o1 (stereo unspecified) , tested on Staphylococcus aureus, showed MIC of 2

The compound "Cc1nc2c(=O)n(C3CC3)c3c(Cl)c(N4CC[C@H](CN)C4)c(F)cc3c2o1" , tested on Staphylococcus aureus, showed MIC of 0.12

The compound Cc1nc2c(=O)n(C3CC3)c3cc(N4CCC(N)C4)c(F)cc3c2o1 (stereo unspecified) , tested on Staphylococcus aureus, showed MIC of 2

The compound "Cc1nc2c(=O)n(C3CC3)c3cc(N4CCC(N)CC4)c(F)cc3c2o1" , tested on Staphylococcus aureus, showed MIC of 1

The compound Cc1nc2c(=O)n3c4c(c(N5CCC(CN)C5)c(F)cc4c2o1)OC[C@H]3C (stereo partly specified) , tested on Staphylococcus aureus, showed MIC of 64

The compound "Cc1nc2c(=O)n(C3CC3)c3c(Cl)c(N4CCC(N)CC4)c(F)cc3c2o1" , tested on Staphylococcus aureus, showed MIC of 0.25

The compound Cc1nc2c(=O)n(C3CC3)c3c(Cl)c(N4CCC(N(C)C)C4)c(F)cc3c2o1 (stereo unspecified) , tested on Staphylococcus aureus, showed MIC of 4

The compound Cc1nc2c(=O)n(C3CC3)c3cc(N4CCC(C(C)N)C4)c(F)cc3c2o1 (stereo unspecified) , tested on Staphylococcus aureus, showed MIC of 1

The compound Cc1nc2c(=O)n(C3CC3)c3cc(N4CCC(CN)C4)c(F)cc3c2o1 (stereo unspecified) , tested on Staphylococcus aureus, showed MIC of 0.5

The compound Cc1nc2c(=O)n(C3CC3)c3c(Cl)c(N4CCC(CN(C)C)C4)c(F)cc3c2o1 (stereo unspecified) , tested on Staphylococcus aureus, showed MIC of 1

The compound Cc1nc2c(=O)n3c4c(c(N5CCC(CN)C5)c(F)cc4c2o1)OC[C@@H]3C (stereo partly specified) , tested on Staphylococcus aureus, showed MIC of 0.5

The compound "Cc1nc2c(=O)n(C3CC3)c3c(Cl)c(N4CCNCC4)c(F)cc3c2o1" , tested on Staphylococcus aureus, showed MIC of 0.25

The compound "Cc1nc2c(=O)n(C3CC3)c3cc(N4CC[C@H](CN)C4)c(F)cc3c2o1" , tested on Staphylococcus aureus, showed MIC of 1

The compound "Cc1nc2c(=O)n(C3CC3)c3c(Cl)c(N4CC[C@@H]([C@H](C)N)C4)c(F)cc3c2o1" , tested on Staphylococcus aureus, showed MIC of 0.06

The compound "Cc1nc2c(=O)n(C3CC3)c3cc(N4CC[C@@H](C(C)(C)N)C4)c(F)cc3c2o1" , tested on Staphylococcus aureus, showed MIC of 2

The compound Cc1nc2c(=O)n(C3CC3)c3c(Cl)c(N4CC5CCCNC5C4)c(F)cc3c2o1 (stereo unspecified) , tested on Staphylococcus aureus, showed MIC of 2

The compound "Cc1nc2c(=O)n(C3CC3)c3c(Cl)c(N4CC[C@@H](CN)C4)c(F)cc3c2o1" , tested on Staphylococcus aureus, showed MIC of 0.12

The compound "CNC[C@H]1CCN(c2c(F)cc3c4oc(C)nc4c(=O)n(C4CC4)c3c2Cl)C1" , tested on Staphylococcus aureus, showed MIC of 0.25

The compound CNCC1CCN(c2c(F)cc3c4oc(C)nc4c(=O)n(C4CC4)c3c2Cl)C1 (stereo unspecified) , tested on Staphylococcus aureus, showed MIC of 0.25

The compound Cc1nc2c(=O)n(C3CC3)c3cc(N4CCC(O)C4)c(F)cc3c2o1 (stereo unspecified) , tested on Staphylococcus aureus, showed MIC of 32

The compound "Cc1nc2c(=O)n(C3CC3)c3c(Cl)c(N4C[C@@H](C)N[C@@H](C)C4)c(F)cc3c2o1" , tested on Staphylococcus aureus, showed MIC of 8

###

- targetSystem: Cytochrome P450 2C9 (Homo sapiens)
- Sequence (P11712 whole entry): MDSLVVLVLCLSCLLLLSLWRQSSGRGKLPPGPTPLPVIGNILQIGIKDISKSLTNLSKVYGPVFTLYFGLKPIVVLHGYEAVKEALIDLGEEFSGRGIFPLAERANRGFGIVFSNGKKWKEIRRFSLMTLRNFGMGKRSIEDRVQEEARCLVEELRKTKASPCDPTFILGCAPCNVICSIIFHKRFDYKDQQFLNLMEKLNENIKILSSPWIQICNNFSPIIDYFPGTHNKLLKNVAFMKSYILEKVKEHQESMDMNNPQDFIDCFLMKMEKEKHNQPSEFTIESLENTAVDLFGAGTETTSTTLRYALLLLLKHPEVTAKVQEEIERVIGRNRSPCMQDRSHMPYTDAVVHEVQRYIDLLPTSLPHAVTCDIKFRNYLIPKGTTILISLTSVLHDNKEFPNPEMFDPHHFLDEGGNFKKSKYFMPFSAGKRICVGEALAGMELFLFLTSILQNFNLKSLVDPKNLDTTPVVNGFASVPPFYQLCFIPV
readoutKind: pIC50
pIC50 is defined as minus the log10 of a concentration measured in mol/L.

# pIC50 of "Cc1nc2c(=O)n(C3CC3)c3c(Cl)c(N4CC[C@@H]([C@H](C)N)C4)c(F)cc3c2o1" = 4.79

###

- targetSystem: Topoisomerase IV (Staphylococcus aureus, UniProt P0C1S7+P0C1U9)
- Sequence (P0C1U9 whole entry): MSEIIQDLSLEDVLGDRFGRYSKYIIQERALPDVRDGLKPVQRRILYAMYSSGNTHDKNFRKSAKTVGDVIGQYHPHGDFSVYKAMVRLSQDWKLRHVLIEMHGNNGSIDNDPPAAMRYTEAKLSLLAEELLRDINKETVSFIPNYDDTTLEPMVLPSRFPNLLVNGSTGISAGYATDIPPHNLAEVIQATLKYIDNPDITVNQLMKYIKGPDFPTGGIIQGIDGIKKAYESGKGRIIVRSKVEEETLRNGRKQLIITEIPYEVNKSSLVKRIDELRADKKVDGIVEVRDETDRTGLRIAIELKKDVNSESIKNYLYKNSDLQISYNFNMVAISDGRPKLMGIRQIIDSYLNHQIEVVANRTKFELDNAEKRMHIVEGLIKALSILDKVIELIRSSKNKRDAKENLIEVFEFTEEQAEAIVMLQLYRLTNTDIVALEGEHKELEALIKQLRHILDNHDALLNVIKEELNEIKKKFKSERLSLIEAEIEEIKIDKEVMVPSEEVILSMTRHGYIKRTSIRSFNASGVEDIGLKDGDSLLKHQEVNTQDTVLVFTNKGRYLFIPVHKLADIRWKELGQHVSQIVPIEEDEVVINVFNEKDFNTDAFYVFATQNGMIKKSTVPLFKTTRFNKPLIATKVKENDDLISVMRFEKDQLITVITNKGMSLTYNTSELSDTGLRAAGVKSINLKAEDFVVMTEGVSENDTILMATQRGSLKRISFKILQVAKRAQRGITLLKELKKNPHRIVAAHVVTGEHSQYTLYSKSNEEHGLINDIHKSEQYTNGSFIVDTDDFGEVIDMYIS
- Sequence (P0C1S7 whole entry): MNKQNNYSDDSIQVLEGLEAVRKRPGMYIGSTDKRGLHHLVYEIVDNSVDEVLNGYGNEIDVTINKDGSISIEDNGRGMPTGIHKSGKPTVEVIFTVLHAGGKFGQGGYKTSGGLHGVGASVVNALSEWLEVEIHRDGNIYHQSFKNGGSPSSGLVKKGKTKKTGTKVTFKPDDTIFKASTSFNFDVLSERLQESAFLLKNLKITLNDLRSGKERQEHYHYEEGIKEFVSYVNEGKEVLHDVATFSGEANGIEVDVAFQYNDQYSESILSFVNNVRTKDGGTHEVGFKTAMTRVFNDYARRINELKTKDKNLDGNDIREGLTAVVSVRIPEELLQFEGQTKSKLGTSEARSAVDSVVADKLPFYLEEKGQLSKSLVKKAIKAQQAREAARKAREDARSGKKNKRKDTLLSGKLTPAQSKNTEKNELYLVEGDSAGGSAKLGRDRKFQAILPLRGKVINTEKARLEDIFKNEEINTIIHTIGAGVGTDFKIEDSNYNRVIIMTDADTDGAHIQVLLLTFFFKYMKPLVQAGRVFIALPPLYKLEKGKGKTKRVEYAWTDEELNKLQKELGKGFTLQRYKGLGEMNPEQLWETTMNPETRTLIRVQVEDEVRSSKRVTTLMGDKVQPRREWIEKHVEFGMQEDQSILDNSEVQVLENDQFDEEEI
- assayProtocol: Inhibition of Staphylococcus aureus topoisomerase IV using kDNA as substrate incubated for 30 mins by ethidium bromide staining based gel electrophoresis analysis
readoutKind: pIC50
pIC50 is defined as minus the log10 of a concentration measured in mol/L.

# pIC50 of "Cc1nc2c(=O)n(C3CC3)c3c(Cl)c(N4CC[C@@H]([C@H](C)N)C4)c(F)cc3c2o1" = 5.21

###

- targetSystem: Cytochrome P450 1A2 (Homo sapiens)
- Sequence (P05177 whole entry): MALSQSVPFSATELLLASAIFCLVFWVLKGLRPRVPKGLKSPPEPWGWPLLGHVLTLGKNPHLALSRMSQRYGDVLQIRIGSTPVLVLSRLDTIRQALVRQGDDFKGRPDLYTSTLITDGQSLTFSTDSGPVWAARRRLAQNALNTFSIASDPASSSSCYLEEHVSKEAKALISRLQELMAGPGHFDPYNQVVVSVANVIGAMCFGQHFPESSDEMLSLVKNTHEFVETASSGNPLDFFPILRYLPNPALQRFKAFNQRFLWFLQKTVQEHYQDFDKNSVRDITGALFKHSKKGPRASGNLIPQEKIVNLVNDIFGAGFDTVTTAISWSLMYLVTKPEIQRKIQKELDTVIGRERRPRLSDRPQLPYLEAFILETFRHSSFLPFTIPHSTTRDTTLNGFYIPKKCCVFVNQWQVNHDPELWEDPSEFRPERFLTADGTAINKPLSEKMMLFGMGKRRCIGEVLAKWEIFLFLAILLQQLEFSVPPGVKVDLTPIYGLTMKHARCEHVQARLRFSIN
readoutKind: pIC50
pIC50 is defined as minus the log10 of a concentration measured in mol/L.

# pIC50 of "Cc1nc2c(=O)n(C3CC3)c3c(Cl)c(N4CC[C@@H]([C@H](C)N)C4)c(F)cc3c2o1" = 4.52

###

- assayProtocol: Intrinsic clearance in human hepatocytes assessed per 10^6 cells
- Assay type: ADME, cell-based, Hepatocyte
- protocolConditions: read-out: CLH
readoutKind: hepatocyte CLint
The number alone won't do; follow it with the unit.

# hepatocyte CLint of "Cc1nc2c(=O)n(C3CC3)c3c(Cl)c(N4CC[C@@H]([C@H](C)N)C4)c(F)cc3c2o1" = 3 µL/min/1e6 cells

###

- assayProtocol: Efflux ratio of permeability in human Caco2 cells
- Format: ADME, cell-based
- protocolConditions: Caco-2
readoutKind: efflux ratio
Reply with the value as a number alone.

# efflux ratio of "Cc1nc2c(=O)n(C3CC3)c3c(Cl)c(N4CC[C@@H]([C@H](C)N)C4)c(F)cc3c2o1" = 2.2

###

- targetSystem: Cytochrome P450 3A4 (Homo sapiens)
- Sequence (P08684 whole entry): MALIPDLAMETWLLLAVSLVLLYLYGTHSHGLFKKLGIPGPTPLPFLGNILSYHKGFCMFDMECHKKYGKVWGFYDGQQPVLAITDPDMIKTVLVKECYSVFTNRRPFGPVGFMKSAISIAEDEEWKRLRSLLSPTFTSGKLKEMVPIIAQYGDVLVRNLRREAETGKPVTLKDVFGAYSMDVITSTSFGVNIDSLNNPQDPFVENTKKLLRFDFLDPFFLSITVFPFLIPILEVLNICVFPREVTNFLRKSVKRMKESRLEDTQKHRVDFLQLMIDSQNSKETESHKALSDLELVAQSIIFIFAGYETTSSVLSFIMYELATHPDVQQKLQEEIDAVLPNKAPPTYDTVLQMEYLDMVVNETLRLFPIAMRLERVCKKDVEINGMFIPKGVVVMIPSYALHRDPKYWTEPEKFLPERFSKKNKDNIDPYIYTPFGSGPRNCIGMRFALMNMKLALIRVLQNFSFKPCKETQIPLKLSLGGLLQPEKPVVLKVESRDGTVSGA
- assayProtocol: Inhibition of CYP3A4 (unknown origin)
- Assay type: ADME
readoutKind: IC50 (µM)
The reply should contain only the number, in µM.

# IC50 of "Cc1nc2c(=O)n(C3CC3)c3c(Cl)c(N4CC[C@@H]([C@H](C)N)C4)c(F)cc3c2o1" = 17.5

###

Kindly state solubility thermodynamic for each of the entries shown.
- assayProtocol: Thermodynamic solubility of the compound
- Format: physicochemical
- protocolConditions: read-out: Therm_solubility
The reply should contain only the number, in µg/mL.

# solubility thermodynamic of "Cc1nc2c(=O)n(C3CC3)c3cc(N4CCC(N)CC4)c(F)cc3c2o1" = 1400

# solubility thermodynamic of Cc1nc2c(=O)n(C3CC3)c3c(Cl)c(N4CC5CCCNC5C4)c(F)cc3c2o1 (stereo not drawn) = 1060

# solubility thermodynamic of Cc1nc2c(=O)n(C3CC3)c3cc(N4CCC(C(C)N)C4)c(F)cc3c2o1 (stereo not drawn) = 1350

# solubility thermodynamic of "Cc1nc2c(=O)n(C3CC3)c3cc(N4CC[C@@H](C(C)(C)N)C4)c(F)cc3c2o1" = 1350

# solubility thermodynamic of "Cc1nc2c(=O)n(C3CC3)c3c(Cl)c(N4CCC(N)CC4)c(F)cc3c2o1" = 922

# solubility thermodynamic of "Cc1nc2c(=O)n(C3CC3)c3c(Cl)c(N4CCNCC4)c(F)cc3c2o1" = 885

# solubility thermodynamic of "Cc1nc2c(=O)n(C3CC3)c3c(Cl)c(N4CC[C@@H](CN)C4)c(F)cc3c2o1" = 950

# solubility thermodynamic of "Cc1nc2c(=O)n(C3CC3)c3c(Cl)c(N4C[C@@H](C)N[C@@H](C)C4)c(F)cc3c2o1" = 543

# solubility thermodynamic of CNCC1CCN(c2c(F)cc3c4oc(C)nc4c(=O)n(C4CC4)c3c2Cl)C1 (stereo not drawn) = 1180

# solubility thermodynamic of "Cc1nc2c(=O)n(C3CC3)c3c(Cl)c(N4CC[C@H](CN)C4)c(F)cc3c2o1" = 601

# solubility thermodynamic of Cc1nc2c(=O)n(C3CC3)c3c(Cl)c(N4CCC(CN(C)C)C4)c(F)cc3c2o1 (stereo not drawn) = 1190

# solubility thermodynamic of Cc1nc2c(=O)n(C3CC3)c3cc(N4CC5CNCC5C4)c(F)cc3c2o1 (stereo not drawn) = 1200

# solubility thermodynamic of "Cc1nc2c(=O)n(C3CC3)c3cc(N4CC[C@H](CN)C4)c(F)cc3c2o1" = 1400

Recorded values, source ChEMBL document CHEMBL4699433.
